// data source = PubChem BioAssay (NCI)

# System: KM12 colon
# experiment summary: NCI tumour cell line growth inhibition, 48 h
parameter: TGI

Use these answered entries as a reference point.
{"molecule": "COc1ccc(CN=C(N)N=C(N)N)cc1OC", "target under test": "KM12 colon", "TGI": "> 1000 µM"}
{"molecule": "O=C(O)CCc1nc2cc3ccccc3cc2[nH]c1=O", "target under test": "KM12 colon", "TGI": "> 100 µM"}
{"molecule": "CC1=C(C(=O)Nc2ccccc2C)C(c2ccccc2C)C(C(=O)Nc2ccccc2C)=C(C)N1", "target under test": "KM12 colon", "TGI": "37.8 µM"}
{"molecule": "OC1c2ccccc2C2C(O)c3ccccc3C12 (stereo unspecified)", "target under test": "KM12 colon", "TGI": "> 100 µM"}
{"molecule": "O=S(=O)(N/N=C/c1ccc(Cl)cc1Cl)c1ccccc1", "target under test": "KM12 colon", "TGI": "> 100 µM"}

Q: API: value(readout= TGI, system= KM12 colon, query= `Cc1cn(Cc2ccccc2CCl)c(=O)n(Cc2ccccc2CCl)c1=O` )
A: 4.48 µM
